- TARGET: 11β-HSD1 Reductase (Rattus norvegicus, UniProt P16232)
- Sequence (P16232 whole entry): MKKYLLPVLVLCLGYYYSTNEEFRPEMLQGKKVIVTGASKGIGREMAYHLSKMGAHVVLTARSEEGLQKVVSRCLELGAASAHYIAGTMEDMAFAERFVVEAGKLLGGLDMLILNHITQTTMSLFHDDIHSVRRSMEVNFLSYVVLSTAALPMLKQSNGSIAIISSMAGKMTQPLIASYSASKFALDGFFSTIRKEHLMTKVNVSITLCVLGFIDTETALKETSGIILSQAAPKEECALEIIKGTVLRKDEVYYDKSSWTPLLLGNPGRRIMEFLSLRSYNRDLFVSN
- ASSAY_EXPLANATION: Table 1: inhibition of 11β-HSD1 reductase
- Assay type: biochemical
- TEST_CONDITIONS: Table 1, inhibition in words

COMPOUND	TARGET	11β-HSD1 Reductase
C[C@]12CC[C@@H](O)C[C@H]1CC[C@@H]1[C@H]2[C@@H](O)C[C@]2(C=O)[C@@H](C(=O)CO)CC[C@@H]12	11β-HSD1 Reductase (Rattus norvegicus, UniProt P16232)	No Inhibition
C[C@]12CC[C@@H](O)C[C@H]1CC[C@@H]1[C@H]2[C@@H](O)C[C@]2(C)[C@@H](C(=O)CO)CC[C@@H]12	11β-HSD1 Reductase (Rattus norvegicus, UniProt P16232)	No Inhibition
CC(=O)[C@H]1CC[C@@H]2[C@@H]3CCC4=CC(=O)CC[C@]4(C)[C@@H]3[C@@H](O)C[C@]12C	11β-HSD1 Reductase (Rattus norvegicus, UniProt P16232)	No Inhibition
CC(=O)[C@H]1CC[C@@H]2[C@@H]3CCC4=CC(=O)CC[C@]4(C)[C@@H]3C(=O)C[C@]12C (stereo in doubt)	11β-HSD1 Reductase (Rattus norvegicus, UniProt P16232)	Selective Inhibitor
C[C@]12CC[C@@H](O)C[C@H]1CC[C@@H]1[C@H]2C(=O)C[C@]2(C)[C@@H](O)CC[C@@H]12	11β-HSD1 Reductase (Rattus norvegicus, UniProt P16232)	Selective Inhibitor
C[C@]12C[C@H](O)[C@@H]3[C@@H](CCC4=CC(=O)CC[C@@]43C)[C@H]1CC[C@@H]2O	11β-HSD1 Reductase (Rattus norvegicus, UniProt P16232)	No Inhibition
C[C@]12CC[C@@H](O)C[C@H]1CC[C@@H]1[C@H]2[C@@H](O)C[C@]2(C)C(=O)CC[C@H]12	11β-HSD1 Reductase (Rattus norvegicus, UniProt P16232)	No Inhibition
C[C@]12CCC(=O)C=C1CC[C@@H]1[C@H]2C(=O)C[C@]2(C)C(=O)CC[C@H]12 (stereo in doubt)	11β-HSD1 Reductase (Rattus norvegicus, UniProt P16232)	Selective Inhibitor
C[C@H](CCC(=O)O)[C@H]1CC[C@H]2[C@@H]3[C@H](O)C[C@@H]4C[C@H](O)CC[C@]4(C)[C@H]3CC[C@]12C	11β-HSD1 Reductase (Rattus norvegicus, UniProt P16232)	No Inhibition
C[C@]12CC(=O)[C@@H]3[C@@H](CCC4=CC(=O)CC[C@@]43C)[C@H]1CC[C@@H]2O	11β-HSD1 Reductase (Rattus norvegicus, UniProt P16232)	Selective Inhibitor
C[C@]12CC[C@@H](O)C[C@H]1CC[C@@H]1[C@H]2C(=O)C[C@]2(C)C(=O)CC[C@@H]12	11β-HSD1 Reductase (Rattus norvegicus, UniProt P16232)	Selective Inhibitor

----------
- TARGET: 11β-HSD1 Reductase (Rattus norvegicus)
- ASSAY_EXPLANATION: 11β-HSD1 reductase assay in rat Leydig cell homogenates;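 also: rat Leydig cell homogenate incubated 20 min at 37 °C, pH 7.4, with tritiated 11-dehydro-corticosterone and 3 mM NADPH, product measured by HPLC, inhibition from triplicate dose–response curves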
Measured IC50, listed per entry.
QUANTITY: IC50

>>> print(df.to_string())
                               given_smiles  quantity    result
0  C[C@]12CC[C@@H](O)C[C@H]1CC[C@@H]1[C@@H]2[C@@H](O)C[C@]2(C)[C@@H](C(=O)CO)CC[C@@H]12      IC50  > 100 µM
1  C[C@]12CC[C@@H](O)C[C@@H]1CC[C@@H]1[C@@H]2[C@@H](O)C[C@]2(C)C(=O)CC[C@@H]12      IC50  > 100 µM
2  C[C@]12C[C@H](O)[C@@H]3[C@@H](CCC4=CC(=O)CC[C@@]43C)[C@H]1CC[C@@H]2O      IC50  > 100 µM
